From: PubChem BioAssay (NCATS)

assaySummary: qHTS of pediatric cancer cell lines to identify multiple opportunities for drug repurposing: Primary screen for SK-N-MC cells (AID 1347093)
testSettings: SK-N-MC viability, CellTiter-Glo luminescence, 48 h; series mostly up to 46 µM
Records with an inconclusive call do not appear. Calls of active or inactive are those of the source. Calls come from the whole dose curve; as a rule, active = well fitted cell-killing curve with a large enough effect; inconclusive = small, poorly fitted or top-dose-only effect; inactive = no such curve, though single readings can be large or run the other way.
In this exercise, the only acceptable responses are active, inactive

Before answering, review these 10 worked examples.
Prompt: What was the test verdict on CCC(=O)O[C@@H]1C=C2CCC3C(CCC4(C)C3CC[C@@H]4OC(=O)CC)C2CC1 (stereo partly specified) ?
Completion: inactive

Prompt: What was the test verdict on Cc1nc(-c2ccc(-c3ccc(C(=O)N4CCc5cc6c(cc54)C4(CCN(C)CC4)CO6)cc3)c(C)c2)no1 ?
Completion: inactive

Prompt: What was the test verdict on O=C(N[C@H]1CN2CCC1CC2)c1ccc(Cl)cc1 ?
Completion: active

Prompt: What was the test verdict on CC[N+]1(CCOC(=O)C(O)(c2ccccc2)c2ccccc2)CCCCC1 ?
Completion: inactive

Prompt: What was the test verdict on C[C@]12CC[C@H](O)CC1=CC[C@H]1[C@H]3CCC(=O)[C@@]3(C)CC[C@@H]12 ?
Completion: active

Prompt: What was the test verdict on CS(=O)(=O)c1ccc(C(=O)C2C(=O)CCCC2=O)c([N+](=O)[O-])c1 ?
Completion: active

Prompt: What was the test verdict on C[C@]12CCC(=O)C(O)=C1CC[C@@H]1[C@H]3CCC(=O)[C@@]3(C)CC[C@@H]12 ?
Completion: inactive

Prompt: What was the test verdict on O=C(O)COc1nc(Cl)c(Cl)cc1Cl ?
Completion: active

Prompt: What was the test verdict on Nc1ccc(Sc2ccc(N)cc2)cc1 ?
Completion: inactive

Prompt: What was the test verdict on COC1=C[C@@H]2[C@@H]3Cc4ccc(OC)c(O)c4[C@]2(CCN3C)CC1=O ?
Completion: active

New cases:
Prompt: What was the test verdict on COc1cc([C@@H]2c3cc4c(cc3[C@@H](O)C3COC(=O)C32)OCO4)cc(OC)c1O (stereo partly specified) ?
Completion: active

###

assaySummary: VSVG counterscreen qHTS to identify inhibitors of SARS-CoV-2 cell entry (AID 1645847); note: nearly all actives have a fitted effect of over 65% in size
testSettings: VSV-G pseudotyped particle entry, luciferase; series mostly up to 57.2 µM
Records with an inconclusive call do not appear. Calls of active or inactive are those of the source. Calls follow the shape of the full dose curve.
In this exercise, the only acceptable responses are t (active), f (inactive)

Prompt: What was the test verdict on CN(c1ncccc1CNc1nc(Nc2ccc3c(c2)CC(=O)N3)ncc1C(F)(F)F)S(C)(=O)=O ?
Completion: t

Prompt: What was the test verdict on CC(=O)c1c(C)c2cnc(Nc3ccc(N4CCNCC4)cn3)nc2n(C2CCCC2)c1=O ?
Completion: t

Prompt: What was the test verdict on COc1cc([C@@H]2c3cc4c(cc3[C@@H](O)C3COC(=O)C32)OCO4)cc(OC)c1O (some centres undefined) ?
Completion: t

Prompt: What was the test verdict on COc1cc(Nc2ncc3c(n2)-c2ccc(Cl)cc2C(c2c(F)cccc2OC)=NC3)ccc1C(=O)O ?
Completion: t

Prompt: What was the test verdict on CNC(=O)c1cc(Oc2ccc(NC(=O)Nc3ccc(Cl)c(C(F)(F)F)c3)c(F)c2)ccn1 ?
Completion: t

Prompt: What was the test verdict on O=C(Nc1ccncc1)C(=O)c1cn(Cc2ccc(Cl)cc2)c2ccccc12 ?
Completion: t

Prompt: What was the test verdict on COc1c(Cl)cc2c([nH]c3cnccc32)c1NC(=O)c1cccnc1C ?
Completion: f

Prompt: What was the test verdict on Cc1ccc(C(N)=O)cc1Nc1nccc(-c2cn(C(C)C)c3cnccc23)n1 ?
Completion: t

Prompt: What was the test verdict on O=C(c1cc(Cc2n[nH]c(=O)c3ccccc23)ccc1F)N1CCN(C(=O)C2CC2)CC1 ?
Completion: t

###

Reported cell viability, % of control (lower = more cytotoxic) by item:
assaySummary: High-throughput drug toxicity screening in the BPDCN cell line Gen2.2 (AID 1224824);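 note: cells exposed to compounds for 48 h before reading; 100% = DMSO and 0% = bortezomib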
testSettings: Gen2.2 BPDCN cells; at 45.8 µM (top of the series)
Express your answer in %, writing the number without its unit.

Prompt: Give the value of cell viability, % of control (lower = more cytotoxic) reported for the following: c1ccc2c(CN3CCNCC3)cccc2c1
Completion: 112

New cases:
Prompt: Give the value of cell viability, % of control (lower = more cytotoxic) reported for the following: CO[C@H]1CCC(O[C@H]2C[C@H]([C@]3(C)CC[C@]4(C[C@H](O)[C@@H](C)[C@@H]([C@@H](C)C=C(C)C(=O)[C@H](C)C[C@H](C)C(=O)O)O4)O3)O[C@]3(O[C@@H]([C@H]4O[C@@](O)(CO)[C@H](C)C[C@H]4C)C[C@H]3C)[C@H]2C)O[C@H]1C (stereo partly drawn)
Completion: 92

Prompt: Give the value of cell viability, % of control (lower = more cytotoxic) reported for the following: C[C@]12COC(=O)C[C@@H]1CC[C@@H]1[C@H]2CC[C@@]2(C)[C@H]1CC[C@]2(C)O
Completion: 122

Prompt: Give the value of cell viability, % of control (lower = more cytotoxic) reported for the following: CC(C)(O)C(=O)Nc1ccc([N+](=O)[O-])c(C(F)(F)F)c1
Completion: 21

Prompt: Give the value of cell viability, % of control (lower = more cytotoxic) reported for the following: CC(=O)N(C)c1cccc(-c2ccnc3c(C(=O)c4cccs4)cnn23)c1
Completion: 111

Prompt: Give the value of cell viability, % of control (lower = more cytotoxic) reported for the following: CC(C)[C@H]1C(=O)N[C@H](CO)Cc2c[nH]c3cccc(c23)N1C
Completion: 391

Prompt: Give the value of cell viability, % of control (lower = more cytotoxic) reported for the following: CCNC(=O)CC1N=C(c2ccc(Cl)cc2)c2cc(OC)ccc2-n2c(C)nnc21 (stereo not drawn)
Completion: 15.2

Prompt: Give the value of cell viability, % of control (lower = more cytotoxic) reported for the following: COC[C@H]1OC(=O)c2coc3c2[C@@]1(C)C1=C(C3=O)[C@@H]2CC[C@H](O)[C@@]2(C)C[C@@H]1OC(C)=O
Completion: 5.55

###

assaySummary: Quantitative High-Throughput drug screen in 47 multiple myeloma cell lines against the NCATS MIPE library collection: KMS28PE_JCRB cell viability assay (AID 1918983); note: nearly all actives have a fitted effect of over 35% in size
testSettings: KMS28PE multiple myeloma viability, CellTiter-Glo ATP, 48 h; series mostly up to 45.8 µM
Inconclusive results are not listed. Activity calls are given as the source filed them. The call rests on the fitted dose curve; in most records, active means well fitted cell-killing curve with a large enough effect; inconclusive means small, poorly fitted or top-dose-only effect, or effect the other way; inactive means no such curve, though single readings can be large or run the other way.
In this exercise, the only acceptable responses are active, inactive

Prompt: What was the test verdict on Cc1ccccc1-n1c(Cn2cnc3c(N)ncnc32)nc2cccc(C)c2c1=O ?
Completion: active

Prompt: What was the test verdict on C[C@@H]1[C@H](O)[C@@H](C)C=CC=CCCC=CC=CC=CC=C[C@H](O[C@H]2O[C@@H](C)[C@H](O)[C@@H](N)[C@@H]2O)CC2O[C@](O)(C[C@@H](O)[C@H](O)CC[C@@H](O)C[C@@H](O)C[C@@H](O)CC(=O)O[C@H]1C)C[C@H](O)[C@H]2C(=O)O ?
Completion: inactive

Prompt: What was the test verdict on CC(N[C@H]1C[C@H]1c1ccccc1)c1ccc2c(c1)OCCO2 (some centres not stated) ?
Completion: active

Prompt: What was the test verdict on Oc1ccc2c3c1O[C@H]1c4[nH]c5c(c4C[C@@]4(O)[C@@H](C2)N(CC2CC2)CC[C@]314)C[C@@]1(O)[C@H]2Cc3ccc(O)c4c3[C@@]1(CCN2CC1CC1)[C@H]5O4 ?
Completion: inactive

Prompt: What was the test verdict on Cc1c(N)nc([C@H](CC(N)=O)NC[C@@H](N)C(N)=O)nc1C(=O)N[C@H](C(=O)N[C@@H](C)[C@H](O)[C@@H](C)C(=O)N[C@@H](C(=O)NCCc1nc(-c2nc(C(=O)NCCC[S+](C)C)cs2)cs1)[C@@H](C)O)C(O[C@H]1O[C@H](CO)[C@H](O)[C@@H](O)[C@@H]1O[C@H]1O[C@H](CO)[C@@H](O)[C@H](OC(N)=O)[C@H]1O)c1cnc[nH]1 (some centres not stated) ?
Completion: inactive

Prompt: What was the test verdict on CC1=C(O)C(=O)C=C2C1=CC=C1[C@@]2(C)CC[C@@]2(C)[C@@H]3C[C@](C)(C(=O)O)CC[C@]3(C)CC[C@]12C ?
Completion: active

New cases:
Prompt: What was the test verdict on CC(C)[C@H]1C(=O)N[C@H](CO)Cc2c[nH]c3cccc(c23)N1C ?
Completion: active

Prompt: What was the test verdict on COc1ccc2c(c[n+](C)c3c4cc5c(cc4ccc23)OCO5)c1OC ?
Completion: active

Prompt: What was the test verdict on C[C@]12CC[C@H]3[C@@H](CCC4=CC(=O)CC[C@@]43C)[C@H]1CC[C@H]2O ?
Completion: inactive

Prompt: What was the test verdict on O=c1cccc2n1CC1CNC[C@H]2C1 ?
Completion: inactive

Prompt: What was the test verdict on O=S(=O)(F)Cc1ccccc1 ?
Completion: inactive

Prompt: What was the test verdict on CCNC(=O)CC1N=C(c2ccc(Cl)cc2)c2cc(OC)ccc2-n2c(C)nnc21 (configuration not stated) ?
Completion: active
